# assay-target: LRRK2 (Homo sapiens)
# Sequence (Q5S007 whole entry): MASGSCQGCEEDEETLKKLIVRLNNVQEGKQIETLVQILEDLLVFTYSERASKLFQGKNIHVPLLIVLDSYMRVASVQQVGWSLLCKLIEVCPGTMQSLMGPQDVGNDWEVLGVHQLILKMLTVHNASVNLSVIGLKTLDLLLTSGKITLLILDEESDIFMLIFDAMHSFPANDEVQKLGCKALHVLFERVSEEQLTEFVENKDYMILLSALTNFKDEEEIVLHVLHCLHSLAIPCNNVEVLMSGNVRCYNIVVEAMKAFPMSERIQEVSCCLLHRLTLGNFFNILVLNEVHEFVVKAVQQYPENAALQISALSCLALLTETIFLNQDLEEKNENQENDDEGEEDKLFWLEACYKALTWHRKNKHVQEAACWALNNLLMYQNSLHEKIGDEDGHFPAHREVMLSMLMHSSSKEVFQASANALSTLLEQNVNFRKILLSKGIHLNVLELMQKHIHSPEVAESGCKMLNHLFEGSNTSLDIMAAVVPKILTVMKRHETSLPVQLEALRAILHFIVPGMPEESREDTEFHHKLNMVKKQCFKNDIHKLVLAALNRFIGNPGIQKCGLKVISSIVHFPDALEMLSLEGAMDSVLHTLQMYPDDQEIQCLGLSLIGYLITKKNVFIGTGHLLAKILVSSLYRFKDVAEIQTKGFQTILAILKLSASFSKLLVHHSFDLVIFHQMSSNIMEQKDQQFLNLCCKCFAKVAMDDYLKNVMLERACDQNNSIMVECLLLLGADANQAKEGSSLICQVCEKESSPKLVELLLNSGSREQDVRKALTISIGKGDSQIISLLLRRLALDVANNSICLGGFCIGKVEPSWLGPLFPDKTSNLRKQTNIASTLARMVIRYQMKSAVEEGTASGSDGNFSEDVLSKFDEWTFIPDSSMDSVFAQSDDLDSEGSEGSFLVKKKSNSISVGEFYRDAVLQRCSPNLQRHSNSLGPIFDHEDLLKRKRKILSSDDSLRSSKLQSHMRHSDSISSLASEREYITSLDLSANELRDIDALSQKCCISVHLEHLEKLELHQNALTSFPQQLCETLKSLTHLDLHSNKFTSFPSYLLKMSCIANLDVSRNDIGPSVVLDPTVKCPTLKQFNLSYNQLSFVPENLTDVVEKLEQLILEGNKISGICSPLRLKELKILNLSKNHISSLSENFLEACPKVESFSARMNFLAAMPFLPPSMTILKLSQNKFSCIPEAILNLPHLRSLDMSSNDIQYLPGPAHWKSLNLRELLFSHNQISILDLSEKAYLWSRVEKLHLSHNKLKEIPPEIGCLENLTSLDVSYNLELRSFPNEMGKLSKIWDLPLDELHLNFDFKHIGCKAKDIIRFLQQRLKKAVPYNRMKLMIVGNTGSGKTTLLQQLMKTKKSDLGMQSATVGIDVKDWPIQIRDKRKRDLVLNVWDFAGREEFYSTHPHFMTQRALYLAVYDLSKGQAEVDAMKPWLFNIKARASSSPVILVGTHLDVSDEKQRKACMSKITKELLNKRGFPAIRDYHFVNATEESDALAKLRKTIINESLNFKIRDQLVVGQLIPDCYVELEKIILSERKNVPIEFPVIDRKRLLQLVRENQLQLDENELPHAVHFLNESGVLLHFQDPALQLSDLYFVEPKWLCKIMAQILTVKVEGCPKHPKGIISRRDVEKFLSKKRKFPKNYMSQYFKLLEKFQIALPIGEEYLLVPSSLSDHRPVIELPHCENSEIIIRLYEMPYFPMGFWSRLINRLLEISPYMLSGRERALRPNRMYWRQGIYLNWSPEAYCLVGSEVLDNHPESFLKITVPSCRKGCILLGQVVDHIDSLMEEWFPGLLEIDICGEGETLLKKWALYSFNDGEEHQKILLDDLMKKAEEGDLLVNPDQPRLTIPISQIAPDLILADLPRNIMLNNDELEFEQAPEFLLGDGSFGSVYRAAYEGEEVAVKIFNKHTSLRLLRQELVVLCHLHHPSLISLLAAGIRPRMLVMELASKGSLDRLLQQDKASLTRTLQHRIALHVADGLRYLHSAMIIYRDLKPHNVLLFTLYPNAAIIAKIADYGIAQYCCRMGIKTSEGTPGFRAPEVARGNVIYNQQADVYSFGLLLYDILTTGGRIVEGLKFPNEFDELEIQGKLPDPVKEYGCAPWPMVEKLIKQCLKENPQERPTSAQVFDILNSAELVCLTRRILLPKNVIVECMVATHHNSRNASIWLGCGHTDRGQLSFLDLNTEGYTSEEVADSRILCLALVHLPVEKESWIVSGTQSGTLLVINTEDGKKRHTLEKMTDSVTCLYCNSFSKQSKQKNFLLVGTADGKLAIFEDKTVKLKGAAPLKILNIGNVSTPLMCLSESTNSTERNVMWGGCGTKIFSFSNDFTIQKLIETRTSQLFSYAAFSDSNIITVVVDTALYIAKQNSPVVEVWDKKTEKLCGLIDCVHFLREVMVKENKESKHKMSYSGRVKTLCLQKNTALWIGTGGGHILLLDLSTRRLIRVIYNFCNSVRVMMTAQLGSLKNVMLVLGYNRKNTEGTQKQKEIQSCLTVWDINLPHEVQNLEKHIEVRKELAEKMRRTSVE
# assay-method-text: experiment of inhibiting kinase activity, LRRK2
# Format: biochemical
# condition-info: kinase activity assay, Table 3
pIC50: −log10 of the molar value.
property: pIC50

QUERY: Which value of pIC50 has been reported for CC(C)S(=O)(=O)c1ccccc1Nc1nc(Nc2ccc3c(c2)OCCOCCN(C)CCO3)nc2[nH]ccc12 in the records?
RESULT: > 7.30

QUERY: Looking for the measured pIC50 of CN1CCOc2ccc(Nc3nc(NCCP(C)(C)=O)c4cc[nH]c4n3)cc2OCC1 , can you help?
RESULT: > 7.30

QUERY: Any idea what its pIC50 is? The molecule is CC(C)S(=O)(=O)c1ccccc1Nc1nc(Nc2ccc3c(c2)OCCN(C)CCO3)nc2[nH]ncc12
RESULT: > 7.30

QUERY: What value of pIC50 has been reported for the following molecule? CN1CCOc2ccc(Nc3nc(NCCS(C)(=O)=O)c4cc[nH]c4n3)cc2OCC1
RESULT: > 7.30

QUERY: May I ask what pIC50 has been recorded for CN1CCOCCOc2cc(Nc3ncc(F)c(-c4ccc(C(=O)NCC#N)cc4)n3)ccc2OCC1 ?
RESULT: 6.70 to 7.30
